Hey, just so you know, these numbers are from patent US4992450A.

# assay-system: mu receptor (Rattus norvegicus, UniProt P33535)
# Construct: rat whole brain minus cerebellum for mu and delta sites; from tissue; host or cells: rat whole brain minus cerebellum, frozen pellet fraction
# Sequence (P33535 whole entry): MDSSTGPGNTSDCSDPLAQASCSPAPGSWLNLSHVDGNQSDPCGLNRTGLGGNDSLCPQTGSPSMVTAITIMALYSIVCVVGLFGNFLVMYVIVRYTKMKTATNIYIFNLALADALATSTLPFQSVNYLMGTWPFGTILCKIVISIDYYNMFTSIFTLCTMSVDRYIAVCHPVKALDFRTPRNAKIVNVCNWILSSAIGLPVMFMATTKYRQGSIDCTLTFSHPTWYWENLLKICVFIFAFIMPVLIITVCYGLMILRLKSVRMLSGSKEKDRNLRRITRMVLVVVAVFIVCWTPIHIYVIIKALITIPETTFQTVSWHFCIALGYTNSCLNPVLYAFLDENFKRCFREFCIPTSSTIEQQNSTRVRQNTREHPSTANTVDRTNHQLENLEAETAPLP
# test: Opioid receptor binding displacement assay, mu site (rat whole brain minus cerebellum, 3H ligand)
# Set-up: species or system Male Sprague Dawley rats
Structures can show the parent of a compound that is named as a salt.
Reported Ki values for the following molecules.
Use nM as the unit, but write only the number.

Recorded Ki, per entry:
> print(dat)
                                   molecule  experimental.readout  quantity.unit  reported
1  CC1CN(CCC2CCCC2)CCC1(C)c1cccc(O)c1 (stereo not drawn) [Example 6, hydrochloride]                    Ki             nM      0.94
2  CC(C)CCCN1CCC(C)(c2cccc(O)c2)C(C)C1 (stereo not drawn) [Example 15, hydrochloride]                    Ki             nM      1.25
3  C=CCCCCN1CCC(C)(c2cccc(O)c2)C(C)C1 (stereo not drawn) [Example 21, hydrochloride]                    Ki             nM      1.61
4  C[C@H]1CN(CCC(=O)C2CCCC2)CC[C@@]1(C)c1cccc(O)c1 (relative stereo) [Example 17, hydrochloride]                    Ki             nM      0.84
5  C=C(C)CCCN1CCC(C)(c2cccc(O)c2)C(C)C1 (stereo not drawn) [Example 3, hydrochloride]                    Ki             nM      2.95

Consider now this further molecule.
Entry "C[C@@H]1CN(CC[C@@H](O)C2CCCCC2)CC[C@]1(C)c1cccc(O)c1" ; Ki = 2.24
